target: KPC-2 (Klebsiella pneumoniae)
Sequence (Q9F663 whole entry, looked up, species assumed): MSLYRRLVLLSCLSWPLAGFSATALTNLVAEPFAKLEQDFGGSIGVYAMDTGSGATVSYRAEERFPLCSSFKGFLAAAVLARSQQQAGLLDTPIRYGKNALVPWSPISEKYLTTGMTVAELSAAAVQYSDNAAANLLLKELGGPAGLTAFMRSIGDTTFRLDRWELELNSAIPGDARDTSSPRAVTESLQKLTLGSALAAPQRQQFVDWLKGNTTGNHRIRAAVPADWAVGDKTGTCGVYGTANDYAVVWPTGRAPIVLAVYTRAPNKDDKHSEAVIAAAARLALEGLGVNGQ
Threshold 1000 µM: Ki strictly smaller gives Yes, otherwise No.

Cpd Smiles: COc1cc(-c2cnc(NCC(=O)O)nc2)cc(C=O)c1OCC(=O)O
Assigned Category: Yes

Cpd Smiles: CNC(=O)c1cc2cc(-c3cnc(NCC(=O)O)nc3)ccc2nc1C
Assigned Category: No

Cpd Smiles: CNC(=O)c1cncc(-c2cnc(NCC(=O)O)nc2)c1
Assigned Category: No

Cpd Smiles: COc1cc(-c2cnc(NCC(=O)O)nc2)cc(C=O)c1OCC(=O)N(C)C
Assigned Category: Yes

====

Items are presented alongside their recorded pKi.
target: NDM-1 (Klebsiella pneumoniae, UniProt C7C422); format: biochemical; conditions: imipenem 40 μM, NDM-1 2 nM, 10 μM ZnSO4
Sequence (C7C422 whole entry, looked up, species assumed): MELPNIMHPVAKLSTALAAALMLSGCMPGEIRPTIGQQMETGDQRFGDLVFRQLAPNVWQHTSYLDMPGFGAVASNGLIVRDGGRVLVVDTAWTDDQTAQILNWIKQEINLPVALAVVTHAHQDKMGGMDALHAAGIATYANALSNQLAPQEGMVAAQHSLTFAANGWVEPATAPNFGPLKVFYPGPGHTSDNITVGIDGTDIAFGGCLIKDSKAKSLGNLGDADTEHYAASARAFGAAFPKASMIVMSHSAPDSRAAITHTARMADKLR
pKi: −log10 of the molar value.

Cpd Smiles: CNC(=O)CCc1ccc(CNCc2cccc(NCc3ccc(-c4ccccc4CC(=O)O)cc3)c2)cc1
Measured On: NDM-1 (Klebsiella pneumoniae, UniProt C7C422)
pKi: 3.84
--
Cpd Smiles: NCc1cccc(NCc2ccc(-c3ccc(C(=O)O)c(O)c3)cc2)c1
Measured On: NDM-1 (Klebsiella pneumoniae, UniProt C7C422)
pKi: 4.85
--
Cpd Smiles: NCc1cccc(NCc2cc(-c3ccc(C(=O)O)c(O)c3)ccn2)c1
Measured On: NDM-1 (Klebsiella pneumoniae, UniProt C7C422)
pKi: 5.32
--
Cpd Smiles: NCc1cccc(NCc2ccnc(-c3ccc(C(=O)O)c(O)c3)c2)c1
Measured On: NDM-1 (Klebsiella pneumoniae, UniProt C7C422)
pKi: 5.09
--
Cpd Smiles: CNC(=O)Cc1cccc(NCc2cccc(-c3ccc(C(=O)O)c(O)c3)c2)c1
Measured On: NDM-1 (Klebsiella pneumoniae, UniProt C7C422)
pKi: 4.06

====

molecular target: NDM-1 (Klebsiella pneumoniae); format: biochemical
Entries and their Ki values follow.
Measurement Name: Ki

Molecule: NCc1cccc(NCc2ccc(-c3ccc(C(=O)O)c(O)c3)s2)c1 [CDD-2600]
Measured On: NDM-1 (Klebsiella pneumoniae)
Measurement Name: Ki
Value Measured: 1.6 µM
//
Molecule: NCc1cccc(NCc2cncc(-c3ccc(C(=O)O)c(O)c3)c2)c1 [CDD-2998]
Measured On: NDM-1 (Klebsiella pneumoniae)
Measurement Name: Ki
Value Measured: 1.9 µM
//
Molecule: CNCc1ccc(-c2ccc(C(=O)O)c(O)c2)o1 [CDD-2363]
Measured On: NDM-1 (Klebsiella pneumoniae)
Measurement Name: Ki
Value Measured: 397 µM
//
Molecule: CC(=O)NCc1cccc(NCc2cccc(-c3ccc(C(=O)O)c(O)c3)c2)c1 [CDD-2919]
Measured On: NDM-1 (Klebsiella pneumoniae)
Measurement Name: Ki
Value Measured: > 100 µM
//
Molecule: Cc1cccc(NCc2cccc(-c3ccc(C(=O)O)c(O)c3)c2)c1 [CDD-2907]
Measured On: NDM-1 (Klebsiella pneumoniae)
Measurement Name: Ki
Value Measured: > 100 µM
//
Molecule: NCc1cccc(NCc2cc(C(=O)O)cc(-c3ccc(C(=O)O)c(O)c3)c2)c1 [CDD-2897]
Measured On: NDM-1 (Klebsiella pneumoniae)
Measurement Name: Ki
Value Measured: 71 µM
//
Molecule: NCc1cccc(N2Cc3ccc(-c4ccc(C(=O)O)c(O)c4)cc3C2)c1 [CDD-3080]
Measured On: NDM-1 (Klebsiella pneumoniae)
Measurement Name: Ki
Value Measured: 43 µM
//
Molecule: CNCc1cccc(NCc2ccc(-c3ccc(C(=O)O)cc3)o2)c1 [CDD-2463]
Measured On: NDM-1 (Klebsiella pneumoniae)
Measurement Name: Ki
Value Measured: 8.5 µM
//
Molecule: NCc1cccc(NCc2cccc(-c3ccc(C(=O)O)c(O)c3)c2)c1 [CDD-2616]
Measured On: NDM-1 (Klebsiella pneumoniae)
Measurement Name: Ki
Value Measured: 0.9 µM
//
Molecule: Cc1cc(CNc2cccc(CN)c2)cc(-c2ccc(C(=O)O)c(O)c2)c1 [CDD-2997]
Measured On: NDM-1 (Klebsiella pneumoniae)
Measurement Name: Ki
Value Measured: 0.53 µM
//
Molecule: NCc1cccc(NC(=O)c2cccc(-c3ccc(C(=O)O)c(O)c3)c2)c1 [CDD-2985]
Measured On: NDM-1 (Klebsiella pneumoniae)
Measurement Name: Ki
Value Measured: 29 µM
